- System: KB-3-1
- protocol-details: Cytotoxic Profiling of Annotated Libraries Using Quantitative High-Throughput Screening (AID 1296008); further: on the % scale 0 is the no-effect control and ±100 the full control effect; nearly all actives have a fitted effect of over 60% in size
- test-parameters: Five cell lines viability, CellTiter-Glo ATP luminescence, 48-72 h; stronger effect = lower value
- Procedure: Cell-based phenotypic screening is a commonly used approach to discover biological pathways, novel drug targets, chemical probes and high-quality hit-to-lead molecules. […] A pintool (Kalypsys) was used to transfer 23 nL of compound solution to the 1536-well assay plates. […] Plates were left at room temperature for 10 min before imaging the ATP-coupled luminescence using a ViewLux microplate imager (PerkinElmer, Waltham, MA).
Inconclusive results are not listed.
property-name: max response (%)
Numbers only; they are read as %.

Please review the following examples before continuing.
molecule-smiles | property-name | observed
Cc1cn2c(n1)Cc1ccc(Cl)cc1C(c1ccc(N)cc1)=N2 | max response | 1.16
COCc1c(Cl)ccc2c1CC[C@H]2c1ncc[nH]1 | max response | -11.1
COc1ccc(-c2csc(NC(=O)[C@H]3CCCCN3S(=O)(=O)c3ccc(C)cc3)n2)cc1 | max response | -25.1

query: I have this molecule here, CN(C)c1ccnc2sc3c(=O)n(N4CCCCCC4)cnc3c12 , and I need its recorded max response.
result: 7

query: # repeat for COc1ccncc1C(=O)NC(=O)Nc1ccc(-c2ccccc2)c(C(F)(F)F)c1
result: -11.2

query: # repeat for CCN(c1cc(-c2ccc(CN3CCOCC3)cc2)cc(C(=O)NCc2c(C)cc(C)[nH]c2=O)c1C)C1CCOCC1
result: -1.86

query: # repeat for COc1ccc(C2(CNC(=O)c3ccc(NC(=O)c4ccco4)cc3)CCOCC2)cc1
result: 8.83

query: # repeat for Cc1ccc(C2(O)CCN(CCCC(=O)c3ccc(F)cc3)CC2)cc1
result: -11.9

query: # repeat for Nc1ncnc2c1c(-c1ccc(Cl)cc1)nn2-c1cccc(-c2cnnn2Cc2cccc(-c3ccccc3)c2)c1
result: -15.9

---

- study-system: Calcium and integrin-binding protein 1 (Homo sapiens)
- protocol-details: Primary qHTS for Identification of Calcium Integrin Binding Protein 1 (CIB1) Competitor (AID 1508620);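 further: GST tagged CIB1 binding a fluorescein labelled alphaIIb integrin peptide tracer; top concentration of the series differs between compounds; on the % scale 0 is the no-effect control and ±100 the full control effect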
- test-parameters: CIB1-GST / FITC-alphaIIb peptide fluorescence polarization; series mostly up to 114 µM
Inconclusive results are not listed. The source made the active and inactive calls. The call rests on the fitted dose curve; in most records, active means well fitted inhibition curve with a large enough effect; inconclusive means small, poorly fitted or top-dose-only effect; inactive means flat fitted curve, though single readings scatter.

compound | study-system | activity change, negative = inhibition
CC(=O)OC1C(=O)C2C3OCC4=C3[C@@](C)(CC[C@@H]4O)CC[C@]2(C)[C@H]1C(C)C (some centres undefined) | Calcium and integrin-binding protein 1 (Homo sapiens) | inactive
C=C(COC(=O)C(O)C(O)CN)C12OC1C1(C)C(=CC2=O)C(O)C(O)CC1C (centres undefined) | Calcium and integrin-binding protein 1 (Homo sapiens) | inactive
CN1C(=O)c2sccc2N(C)c2nc(Nc3ccc(S(N)(=O)=O)cc3)ncc21 | Calcium and integrin-binding protein 1 (Homo sapiens) | inactive
O=C(c1ccc(Cl)cc1)N1CCN(c2ccnc3cc(Cl)ccc23)CC1 | Calcium and integrin-binding protein 1 (Homo sapiens) | inactive

---

- Tested on: astro
- protocol-details: Drug repurposing screens with cells derived from glioblastoma tumor samples (AID 1345199); further: nearly all actives have a fitted effect of over 40% in size
- test-parameters: viability, ATP luminescence, 48 h; series mostly up to 45.9 µM
Results filed as inconclusive are left out. The source made the active and inactive calls. Calls follow the shape of the dose curve; as a rule, active = well fitted inhibition curve with a large enough effect; inconclusive = small, poorly fitted or top-dose-only effect; inactive = flat fitted curve, though single readings scatter.
Respond using exactly one of the listed classes: active, inactive

compound | qualitative-label
CCOC(=O)Cc1cccc(-c2cc(CCCCCCc3ccc(O[C@H]4O[C@H](COC(C)=O)[C@@H](OC(C)=O)[C@H](OC(C)=O)[C@@H]4OC(C)=O)c(-c4cccc(CC(=O)OCC)c4)c3)ccc2O[C@H]2O[C@H](COC(C)=O)[C@@H](OC(C)=O)[C@H](OC(C)=O)[C@@H]2OC(C)=O)c1 | inactive
CC(=O)N[C@@H](C=O)[C@H](O)[C@H](O)[C@@H](O)CO | inactive
CS(=O)(=O)NC(=O)CCC/C=C\C[C@H]1C(=O)C[C@@H](O)[C@@H]1/C=C/[C@H](O)COc1ccccc1 | inactive
CCCCC(=O)O | inactive
O=S(=O)(O)Oc1ccc(C(c2ccc(OS(=O)(=O)O)cc2)c2ccccn2)cc1 | inactive
C[N+](C)(CCCCCC[N+](C)(C)C1c2ccccc2-c2ccccc21)C1c2ccccc2-c2ccccc21 | inactive

query: Lab log entry: COc1cc(C[C@@H]2NCCc3cc(O)c(O)cc32)cc(OC)c1OC — outcome as called in the assay?
result: inactive

query: # repeat for CC(CC(c1ccccc1)c1ccccc1)NC(C)(C)C (stereo not given)
result: inactive

query: # repeat for C[C@H]1C[C@H]2[C@@H]3CCC4=CC(=O)C=C[C@]4(C)[C@@]3(F)[C@@H](O)C[C@]2(C)[C@@]1(O)C(=O)CCl
result: inactive

query: # repeat for CN1CCN(C2=Nc3ccccc3Cc3ccccc32)CC1
result: inactive

query: # repeat for CCCCCCCC/C=C\CCCCCCCC(=O)OC[C@@H](O)[C@H]1OC[C@H](O)[C@H]1O
result: inactive

query: # repeat for NCCC(=O)[N-][C@@H](Cc1cnc[nH]1)C(=O)O.[Zn]
result: inactive

query: # repeat for CC(C)(C)CC(=O)OCC(=O)[C@@]12OC(C)(C)O[C@@H]1C[C@H]1[C@@H]3CCC4=CC(=O)C=C[C@]4(C)[C@@]3(F)[C@@H](O)C[C@@]12C
result: inactive

query: # repeat for Oc1cccc(-c2c3nc(c(-c4cccc(O)c4)c4ccc([nH]4)c(-c4cccc(O)c4)c4nc(c(-c5cccc(O)c5)c5ccc2[nH]5)CC4)C=C3)c1
result: active

---

- Tested on: Hek293T
- protocol-details: Primary qHTS to identify gynecologic anti-cancer compounds using libraries of approved drugs and bioactive compounds (AID 1345084); further: nearly all actives have a fitted effect of over 55% in size
- test-parameters: Gynecologic cancer cell panel viability, ATPlite luminescence, 48 h, control line for the selectivity index; series mostly up to 57.5 µM
Records with an inconclusive call do not appear. Active and inactive are the calls of the source. The call rests on the fitted dose curve; in most records, active means well fitted cell-killing curve with a large enough effect; inconclusive means small, poorly fitted or top-dose-only effect, or effect the other way; inactive means flat fitted curve, though single readings scatter.
Respond using exactly one of the listed classes: true = active, false = inactive

The examples below pair each entry with its known result.
compound | qualitative-label
C=CC(=O)Nc1ccc2ncnc(Nc3cccc(Br)c3)c2c1 | false
C=C1CCN([C@H](C)[C@](O)(Cn2cncn2)c2ccc(F)cc2F)CC1 | false
CCn1c(=O)n([C@H]2CCCN(c3nccc(-c4cc5ccccc5o4)n3)C2)c2ccccc21 | false
COC(=O)/C=C/C=C/C(=O)OC1C=C2COC(=O)C2(O)C2(C)CCCC(C)(C)C12 (stereo unspecified) | false
C=C1C(=O)OC2/C=C(\C)CC/C=C(\C)CC(OC(C)=O)C12 (stereo unspecified) | false
O=S(=O)(N[C@H]1CCCC[C@@H]1N1CCOCC1)c1ccc(Cl)cc1 | false
CN(CC1COCCO1)S(=O)(=O)Nc1ccc2ccc3ncc(-c4cnn(C)c4)cc3c(=O)c2c1 (stereo unspecified) | false
CC(=O)C=C=C1C(C)(C)CC(O)CC1(C)O[C@@H]1O[C@H](CO[C@H]2OC[C@](O)(CO)[C@H]2O)[C@@H](O)[C@H](O)[C@H]1O (stereo partly specified) | false

query: Lab log entry: C=C[C@H](/C=C\c1ccc(O)cc1)c1ccc(O)cc1 — outcome as called in the assay?
result: false

query: # repeat for CC(C)n1cnc2c(-c3cnc(N)nc3)nc(N3CCOCC3)nc21
result: true

query: # repeat for CCNC(=O)Nc1ccc(-c2nc3c(c(N4CCOCC4C)n2)CCN(C2COC2)C3)cc1 (stereo unspecified)
result: true

query: # repeat for Cc1noc(-c2ccc(-c3ccc(CC(=O)O)cc3)cc2)c1NC(=O)O[C@H](C)c1ccccc1Cl
result: false

query: # repeat for CC1(CO)CC(O)[C@]2(C(=O)O)CCC34CC3(C=CC3[C@]5(C)C(CC[C@]34C)C(C)(CO)[C@@H](O)[C@H](O)[C@@H]5O)C2C1 (stereo partly specified)
result: false

query: # repeat for COc1cc2nc(N3CCN(C(=O)COc4c(OC)cccc4C(C)C)CC3)nc(N)c2cc1OC
result: false

query: # repeat for Cc1nc2ccc(CN(C)c3ccc(C(=O)NC(CCC(=O)O)C(=O)O)s3)cc2c(=O)[nH]1 (stereo unspecified)
result: false

query: # repeat for C/C=C(\C)C(=O)OC1C(C)C2(O)C(C=C(CO)CC3(O)C(=O)C(C)=CC32)C2C(C)(C)C12OC(=O)C(C)C (stereo unspecified)
result: false

---

- protocol-details: Primary fluorescence-based thiol-reactive (MSTI) qHTS assay for identification of artifact compounds. (AID 1845221); further: nearly all actives have a fitted effect of over 65% in size
- test-parameters: MSTI thiol-reactivity probe, 1 h; series mostly up to 53.8 µM
Results filed as inconclusive are left out. Calls of active or inactive are those of the source. Calls follow the shape of the dose curve; as a rule, active = well fitted inhibition curve with a large enough effect; inconclusive = small, poorly fitted or top-dose-only effect; inactive = no such curve, though single readings can be large or run the other way. Where a SMILES comes first, the peptide text is derived from it. The star is where a group is joined. Cbz = O=C(OCc1ccccc1)*; CH2Cl = ClC*
Respond using exactly one of the listed classes: active, inactive

compound | qualitative-label
C=C(C)C(=O)O[C@H]1C[C@@](C)(O)C2(O)CCC(C)(/C=C3/OC(=O)C(COC)=C31)O2 (some centres undefined) | inactive
CC[C@@H](Nc1c(Nc2cccc(C(=O)N(C)C)c2O)c(=O)c1=O)c1cc(C(C)C)co1 | active
CCOc1cccc(NC(=O)c2ccc(N3CCCC3)c(C(F)(F)F)c2)c1 | inactive

query: Lab log entry: CC(C)(C)c1ccc(-c2nc3c(N4CCN(Cc5ccc6nccnc6c5)CC4)cccc3[nH]2)cc1 — outcome as called in the assay?
result: active

query: # repeat for O=C(NCCCCCCCCNC(=O)C(Cl)Cl)C(Cl)Cl
result: inactive

query: # repeat for CCc1ccccc1OC[C@@H](O)CN[C@H]1CCCc2ccccc21
result: inactive

query: # repeat for CCCn1ncc(CN2CCCC(C(=O)c3cccc(OC(C)C)c3)C2)c1C (centres undefined)
result: inactive

query: # repeat for CC(C)C[C@H](NC(=O)CNC(=O)OCc1ccccc1)C(=O)N[C@@H](Cc1ccccc1)C(=O)CCl (Cbz-Gly-Leu-Phe-CH2Cl)
result: inactive

query: # repeat for Cc1csc(N(C(=O)CSc2ccc(-c3ccccc3)nn2)C2CC2)n1
result: inactive

query: # repeat for Cc1c(C2=CCN(C(=O)N(C)C(C)C)CC2)nnn1-c1cccnc1F
result: inactive

query: # repeat for O=C(c1ccccn1)N(Cc1cccs1)C1(C(=O)NC2CCCCC2)CCCCC1
result: inactive

query: # repeat for CCn1c(=O)n([C@H]2CCCN(c3nccc(-c4cc5ccccc5o4)n3)C2)c2ccccc21
result: inactive

query: # repeat for CCOC(=O)CCNc1cc(N2CCc3ccccc3CC2)nc(-c2cccnc2)n1
result: inactive

query: # repeat for CCN(Cc1ccccc1)C(=O)Cn1c(=O)n(C)c2cnc(-c3ccccc3)nc21
result: inactive

query: # repeat for Nc1nc2c(ncn2C2OC3COP(=O)(O)OC3C2O)c(=O)[nH]1 (centres undefined)
result: inactive

query: # repeat for Cn1cc(-c2cnn3c(N)c(Br)c([C@@H]4CCCNC4)nc23)cn1
result: inactive

query: # repeat for O=C(Nc1ccc(C(O)(C(F)(F)F)C(F)(F)F)cc1)c1ccc(C(F)(F)F)cc1
result: inactive

query: # repeat for CC(=O)OC1CC2(C)C(CCC(C)C23Cc2c(O)cc(CO)c(C=O)c2O3)C(C)(C)C1O (centres undefined)
result: inactive

query: # repeat for Cc1cc2c(cc1N1C(=O)c3cccc4c(CCCO)ccc(c34)C1=O)n(C)c(=O)n2C
result: inactive

query: # repeat for C[C@@H]1CC[C@]2(C(=O)O)CC[C@]3(C)C(=CCC4[C@@]5(C)CC[C@H](O)[C@](C)(C(=O)O)C5CC[C@]43C)C2[C@]1(C)O (some centres undefined)
result: inactive

query: # repeat for C=C1CCC2C(C)(C(=O)O)CCCC2(C)C1CCC1=CCOC1=O (centres undefined)
result: inactive

query: # repeat for CC1CC(=O)C2=C(C1)C1OC1C1(O)C2C(=O)c2cccc(O)c2C1O (centres undefined)
result: active

query: # repeat for CC(=O)O[C@@H]1C[C@@]23C[C@@]24CC[C@H](O[C@@H]2OC[C@H](O)[C@H](O)[C@H]2O)C(C)(C)[C@@H]4CC[C@H]3[C@]2(C)[C@@H](O)C34O[C@H](C[C@@H](C)[C@@H]3[C@@]12C)[C@@H](C(C)(C)O)O4
result: inactive

query: # repeat for O=c1cc(N2CCN(c3cccc(C(F)(F)F)c3)CC2)[nH]c(=O)n1C1CCCCC1
result: inactive

query: # repeat for Nc1nc2c(cnn2CCCc2ccc(O)cc2)c2nc(-c3ccco3)nn12
result: inactive

Where these numbers come from: PubChem BioAssay (NCATS)
